Assay Overview: IAM chromatography (IAM-HPLC), IAM.PC.DD2 column
Assay type: physicochemical
Measurement Parameters: IAM chromatography, pH 7.4; from mean of three retention times

# Smiles Repr, CHI (CHIIAM), Table S2
records = [
    ("COc1ccc(-c2cnnc(NS(=O)(=O)c3cc(C)c(Cl)cc3SCc3cccc4ccccc34)n2)cc1", 41.1),
    ("Cc1cc(S(=O)(=O)Nc2nncc(-c3cccc(F)c3)n2)c(SCc2cccc3ccccc23)cc1Cl", 42.2),
    ("Cc1cc(S(=O)(=O)Nc2nnc(C)c(=O)[nH]2)c(SCc2cccc3ccccc23)cc1Cl", 31.4),
    ("O=S(=O)(Nc1cccc2nsnc12)c1ccc(-n2cccc2)cc1", 31.4),
]

* * *

Assay Overview: Phenyl (Ph) chromatography, logkw from two gradients with DryLab
Assay type: physicochemical
Measurement Parameters: pH 7.4, 40 °C; retention factor extrapolated to 0% organic modifier

# Smiles Repr, logkwPh
rows = [
    ("Cc1cc(S(=O)(=O)NC(=O)C=Cc2ccccc2)c(SCc2cccc3ccccc23)cc1Cl", 4.46),
    ("COc1cc(-c2cnnc(NS(=O)(=O)c3cc(C(=O)Nc4ccc(C)cc4)c(Cl)cc3SCc3ccccc3)n2)cc(OC)c1OC", 3.97),
    ("Cc1ccnc(NS(=O)(=O)c2ccc(-n3cccc3)cc2)n1", 2.62),
    ("Cc1cc(S(=O)(=O)Nc2nncc(-c3cccc(F)c3)n2)c(SCc2ccc(C(F)(F)F)cc2)cc1Cl", 4.09),
    ("Cc1cc(S(=O)(=O)Nc2nnc(Cc3ccccc3[N+](=O)[O-])c(=O)[nH]2)c(SCc2cc3c(cc2Cl)OCO3)cc1Cl", 3.90),
    ("CC(=O)NS(=O)(=O)c1cc(C)c(Cl)cc1SCc1cccc2ccccc12", 2.87),
    ("Cc1cc(S(=O)(=O)Nc2nnc(Cc3ccccc3)c(=O)[nH]2)c(SCc2cc3c(cc2Cl)OCO3)cc1Cl", 3.82),
    ("Cc1cc(S(=O)(=O)Nc2nnc(C)c(=O)[nH]2)c(SCc2cccc3ccccc23)cc1Cl", 2.88),
]

* * *

Assay Overview: Phenyl (Ph) chromatography, logkw from two gradients with DryLab
Type: physicochemical
Measurement Parameters: pH 7.4, 40 °C; retention factor extrapolated to 0% organic modifier
Measured logkwPh, listed per entry for reference.
Quantity Name: logkwPh

# Smiles Repr, Endpoint Value
records = [
    ("COc1ccc(-c2cnnc(NS(=O)(=O)c3cc(C)c(Cl)cc3SCc3ccc(C(F)(F)F)cc3)n2)cc1", 3.89),
    ("COc1ccc(-c2cnnc(NS(=O)(=O)c3cc(C(=O)Nc4ccc(Cl)cc4)c(Cl)cc3SCc3ccccc3)n2)cc1", 4.48),
    ("O=C(Nc1ccc(Cl)cc1)c1cc(S(=O)(=O)Nc2nncc(-c3ccc(C(F)(F)F)cc3)n2)c(SCc2ccccc2)cc1Cl", 5.07),
]

* * *

Assay Overview: Phenyl (Ph) chromatography, logkw from two gradients with DryLab
Assay type: physicochemical
Measurement Parameters: Phenyl chromatography, pH 7.4; short and long gradient
Some compounds, each annotated with its measured logkw, Table S6.

# Smiles Repr, logkw, Table S6
measured = [
    ("Cc1cc(S(=O)(=O)Nc2nnc(-c3ccccc3)c(=O)[nH]2)c(SCc2ccc(C(F)(F)F)cc2)cc1Cl", 4.490),
    ("Cc1ccc2cccnc2c1NS(=O)(=O)c1ccc(-n2cccc2)cc1", 5.556),
    ("Cc1ccc2cccc(NS(=O)(=O)c3ccc(-n4cccc4)cc3)c2n1", 7.389),
    ("COc1ccc(-c2cnnc(NS(=O)(=O)c3cc(C)c(Cl)cc3SCc3cccc4ccccc34)n2)cc1", 4.401),
    ("COc1ccc(-c2cnnc(NS(=O)(=O)c3cc(C)c(Cl)cc3SCc3ccc(C(F)(F)F)cc3)n2)cc1", 3.886),
    ("Cc1cc(S(=O)(=O)NC(=O)C=Cc2ccccc2)c(SCc2cccc3ccccc23)cc1Cl", 4.460),
    ("Cc1cc(S(=O)(=O)Nc2nncc(-c3cccc(F)c3)n2)c(SCc2ccccc2)cc1Cl", 3.532),
    ("Cc1cc(S(=O)(=O)Nc2nncc(-c3ccc(C(F)(F)F)cc3)n2)c(SCc2ccc(C(F)(F)F)cc2)cc1Cl", 4.480),
    ("Cc1ccc(NC(=O)c2cc(S(=O)(=O)Nc3nncc(-c4ccc(C(F)(F)F)cc4)n3)c(SCc3ccccc3)cc2Cl)cc1", 4.540),
    ("O=C(Nc1ccc(Cl)cc1)c1cc(S(=O)(=O)Nc2nncc(-c3ccc(C(F)(F)F)cc3)n2)c(SCc2ccccc2)cc1Cl", 5.074),
    ("Cc1ccnc(NS(=O)(=O)c2ccc(-n3cccc3)cc2)n1", 2.620),
    ("Cc1cc(S(=O)(=O)Nc2nnc(-c3ccccc3)c(=O)[nH]2)c(SCc2cccc3ccccc23)cc1Cl", 4.193),
    ("Cc1cc(C)nc(NS(=O)(=O)c2ccc(-n3cccc3)cc2)n1", 2.810),
    ("Cc1cc(S(=O)(=O)Nc2nncc(-c3cccc(F)c3)n2)c(SCc2cccc3ccccc23)cc1Cl", 4.254),
    ("Cc1cc(S(=O)(=O)Nc2nnc(C)c(=O)[nH]2)c(SCc2cccc3ccccc23)cc1Cl", 2.880),
    ("O=S(=O)(Nc1cccc2cccnc12)c1ccc(-n2cccc2)cc1", 6.221),
]
